Listed compounds paired with reported Relative peak area, standing time 12
Assay name: GC fingerprint: study on the sample stability
Format: physicochemical
Measurement context: Semen Ziziphi Spinosae oil sample 2 test solution, tested at 12 h, GC
Source text: […]
Please give the numeric answer without any surrounding text.

                               compound  recorded_measurement
0  CCCCCCCC/C=C\CCCCCCCC(=O)OC [Peak s]                 1.000

Lookup: Fill blank: measured Relative peak area, standing time 12 of the compound CCCCCCCCCCCCCCCCCCCC(=O)OC [Peak 8] is ____.
Found: 0.023

Lookup: Form field: reported Relative peak area, standing time 12 of CC/C=C\C/C=C\C/C=C\CCCCCCCC(=O)OC [Peak 5]
Found: 0.009

Lookup: State the recorded Relative peak area, standing time 12 for this entry: CCCCCCCCCCCCCCCCCCCCCC(=O)OC [Peak 11]
Found: 0.021

Entry source: patent US10881704B2
